experiment: TIMS collision cross section in N2 (TIMS CCS N2); higher = larger gas-phase ion size; conditions: ion species: [M-H]-; drift gas: N2 (99.4% N2, 0.6% O2); calibration: Stow et al. 2017 values for Agilent ESI-L Low Concentration Tune Mix; ionization: negative ESI
measurement-type: TIMS collision cross section in N2 (Å²)
Supply the numeric figure in Å², leaving out any unit text.

Exam item: Look at this compound and give its reported TIMS collision cross section in N2. C[C@H]1[C@H](C)CC[C@]2(C(=O)O)CC[C@]3(C)C(=CC[C@@H]4[C@@]5(C)C[C@@H](O)[C@@H](O)C(C)(C)[C@@H]5CC[C@]43C)[C@H]12 [Pygenic acid A]
Marked response: 220.9

Exam item: What does the record list as TIMS collision cross section in N2 for CC(C)=CCC1=C(O)C(O)(CC=C(C)C)C(=O)C(C(=O)C(C)C)=C1O (configuration not stated) [Cohumulone] ?
Marked response: 184.13

Exam item: So what's the measured TIMS collision cross section in N2 for this one? CCCCCCCCCCCCCCCC(=O)O [Palmitic acid]
Marked response: 170.37

Exam item: Give its TIMS collision cross section in N2 value. Item: O=c1cc(-c2ccc(O)c(O)c2)oc2cccc(O)c12 [5,3',4'-Trihydroxyflavone]
Marked response: 156.4

Exam item: I have this compound here, C[C@H]1[C@H](C)CC[C@]2(C(=O)O)CC[C@]3(C)C(=CC[C@@H]4[C@@]5(C)C[C@@H](O)[C@H](O)[C@@](C)(CO)[C@@H]5CC[C@]43C)[C@H]12 [Asiatic acid] , and I need its recorded TIMS collision cross section in N2.
Marked response: 222.65

Exam item: What value of TIMS collision cross section in N2 has been reported for the following compound? COc1cc(O)c2c(=O)c(-c3ccc(O)cc3)coc2c1 [Prunetin]
Marked response: 167.78

Exam item: Reported TIMS collision cross section in N2 for COc1ccc([C@@H]2CC(=O)c3c(O)cc(O)cc3O2)cc1O [Hesperetin] : what is it?
Marked response: 172.79

###

experiment: TIMS collision cross section in N2 (TIMS CCS N2); higher = larger gas-phase ion size; conditions: ion species: [2M-H]-; drift gas: N2 (99.4% N2, 0.6% O2); calibration: Stow et al. 2017 values for Agilent ESI-L Low Concentration Tune Mix; ionization: negative ESI
measurement-type: TIMS collision cross section in N2 (Å²)
Please reply with the bare figure in Å² and do not write the unit itself.

Exam item: May I ask what TIMS collision cross section in N2 has been recorded for O=c1c(O)c(-c2ccc(O)cc2)oc2cc(OC3OC(CO)C(O)C(O)C3O)cc(O)c12 (stereo not given) [kaempferol-7-O-glucoside] ?
Marked response: 283.76

Exam item: I'd like to know its TIMS collision cross section in N2. The molecule in question is O=c1cc(-c2ccccc2)oc2ccc(O)cc12 [6-Hydroxyflavone]
Marked response: 239.79

Exam item: TIMS collision cross section in N2 lookup needed for COc1ccc(-c2cc(=O)c3ccc(O)cc3o2)cc1 [7-Hydroxy-4'-methoxyflavone] , thanks.
Marked response: 231.78

Exam item: Any idea what its TIMS collision cross section in N2 is? The molecule is COc1ccc(C2CC(=O)c3ccc(O)cc3O2)cc1OC (stereo not given) [3',4'-Dimethoxy-7-hydroxyflavanone]
Marked response: 241.38

Exam item: Would you mind telling me what TIMS collision cross section in N2 value was observed for `O=c1c(-c2ccc(O)cc2)coc2cc(O)cc(O)c12` ?
Marked response: 249.93

Exam item: Record request: TIMS collision cross section in N2 value, item `COc1ccc([C@@H]2CC(=O)c3c(O)cc(O)cc3O2)cc1O`
Marked response: 219.76

Exam item: Fill in: TIMS collision cross section in N2 of `O=c1c(-c2ccc(O)cc2)coc2cc(O)ccc12` is ___
Marked response: 246.33

Exam item: Reported TIMS collision cross section in N2, molecule O=C1CC(c2ccccc2)Oc2ccc(O)cc21 (stereo not given) [6-Hydroxyflavanone] : ____
Marked response: 244.54

Exam item: Fill in: TIMS collision cross section in N2 of `O=c1cc(-c2ccccc2)oc2cc(O)cc(O)c12` is ___
Marked response: 230.51

Exam item: Could you share which TIMS collision cross section in N2 value was measured for `COc1cc(O)c2c(=O)c(-c3ccc(O)cc3)coc2c1` ?
Marked response: 264.09

Exam item: TIMS collision cross section in N2 for O=C1c2c(O)cc(O)cc2O[C@H](c2ccc(O)cc2)[C@H]1O [Dihydrokaempferol] ?
Marked response: 248.74

Exam item: // TIMS collision cross section in N2 lookup, key: `O=C(CCc1ccc(O)c(O)c1)c1c(O)cc(O)c([C@@H]2O[C@H](CO)[C@@H](O)[C@H](O)[C@H]2O)c1O`
Marked response: 274.03

Exam item: Query (molecule): O=c1c(-c2ccc(O)c(O)c2)coc2cc(O)ccc12 [3',4',7-Trihydroxyisoflavone] ; field requested: TIMS collision cross section in N2
Marked response: 217.7

Exam item: I would be grateful if you could share the reported TIMS collision cross section in N2 for O=c1c(O[C@@H]2O[C@H](CO)[C@@H](O)[C@H](O)[C@H]2O)c(-c2ccc(O)cc2)oc2cc(O)cc(O)c12 [kaempferol-3-O-glucoside] .
Marked response: 279.93

Exam item: Which TIMS collision cross section in N2 value is on record for O=c1c(-c2ccc(O)cc2)coc2cc(O)c(O)cc12 [6,7,4'-Trihydroxyisoflavone] ?
Marked response: 249.43

Exam item: Need TIMS collision cross section in N2 of COc1cccc(-c2cc(=O)c3ccc(O)cc3o2)c1 [7-Hydroxy-3'-methoxyflavone] , thanks.
Marked response: 229.62

Exam item: State the recorded TIMS collision cross section in N2 for this entry: COc1ccc(-c2cc(=O)c3ccc(O)cc3o2)cc1 [Pratol]
Marked response: 234

Exam item: # query: TIMS collision cross section in N2 of entry `CC(C)=CCc1c(O)cc2c(c1O)C(=O)C[C@@H](c1ccc(O)cc1)O2`
Marked response: 235.03

Exam item: Given O=c1cc(-c2ccc(O)c(O)c2)oc2cccc(O)c12 [5,3',4'-Trihydroxyflavone] , state its recorded TIMS collision cross section in N2.
Marked response: 244.46

Exam item: Quick one: TIMS collision cross section in N2 for `COc1ccc(-c2coc3cc(O)ccc3c2=O)cc1` ?
Marked response: 257.46

Exam item: # lookup: TIMS collision cross section in N2 of `CC(C)=CCc1c(O)ccc2c1O[C@H](c1ccc(O)cc1)CC2=O`
Marked response: 237.66

Exam item: Requested field: TIMS collision cross section in N2. Item: O=c1cc(-c2cccc(O)c2)oc2ccccc12 [3'-Hydroxyflavone]
Marked response: 218.5

Exam item: Fill in the blank: the reported TIMS collision cross section in N2 of COc1ccc2c(=O)cc(-c3ccc(O)cc3)oc2c1 [7-Methoxy-4'-hydroxyflavone] is ____.
Marked response: 257.82

Exam item: Requested read-out: TIMS collision cross section in N2. Entry: COc1ccc(-c2coc3cc(O)cc(O)c3c2=O)cc1 [Biochanin A (5,7-Dihydroxy-4'-methoxyisoflavone)]
Marked response: 261.04

Exam item: Entry under review: COc1ccc(C2CC(=O)c3c(O)cc(O)cc3O2)cc1OC (stereo not given) [5,7-dihydroxy-3',4'-dimethoxy-flavanone] . Reported TIMS collision cross section in N2?
Marked response: 238.03

Exam item: # input molecule: COc1ccccc1-c1cc(=O)c2c(O)cc(O)cc2o1 [5,7-Dihydroxy-2'-methoxyflavone] ; wanted: its TIMS collision cross section in N2
Marked response: 238.49

Exam item: For the molecule shown here, O=c1cc(-c2ccccc2)oc2cc(O)ccc12 [7-Hydroxyflavone] , give the reported TIMS collision cross section in N2.
Marked response: 228.17

Exam item: Look at this molecule and give its reported TIMS collision cross section in N2. `O=c1cc(-c2ccc(O)cc2)oc2cc(O)cc(O)c12`
Marked response: 238.72

Exam item: Dear colleague, I am looking for the recorded TIMS collision cross section in N2 of the following molecule: `O=c1c(O)c(-c2ccccc2)oc2cc(O)cc(O)c12`
Marked response: 238

Exam item: Consider the molecule shown here: `O=C1C[C@@H](c2ccc(O)cc2)Oc2cc(O)ccc21` What is its recorded TIMS collision cross section in N2?
Marked response: 202.54

Exam item: State the recorded TIMS collision cross section in N2 for this entry: `O=c1c(O)c(-c2ccc(O)cc2)oc2cc(O)cc(O)c12`
Marked response: 234.8

Exam item: TIMS collision cross section in N2 for CCCCCCCCO[C@@H]1O[C@H](CO)[C@@H](O)[C@H](O)[C@H]1O [n-Octyl-beta-D-glucopyranoside] ?
Marked response: 272.83

Exam item: For the molecule shown here, `O=c1cc(-c2ccc(O)c(O)c2)oc2cc(O)cc(O)c12` , give the reported TIMS collision cross section in N2.
Marked response: 234.87

Exam item: Give its TIMS collision cross section in N2 value. Item: CCCCCCCCCCO[C@@H]1O[C@H](CO)[C@@H](O)[C@H](O)[C@H]1O [n-Decyl-beta-D-glucopyranoside]
Marked response: 277.92

Exam item: Need TIMS collision cross section in N2 of COc1ccc(-c2cc3ccc(O)cc3oc2=O)cc1OC [3(3',4'-Dimethoxyphenyl)-7-hydroxycoumarin] , thanks.
Marked response: 276.72

Every entry's value here was drawn from the supplement of paper PMC7023306.
